system: NCI-H226 lung; assay: NCI-60 one-dose screen, 48 h (100 = growth as untreated, 0 = no growth, -100 = all killed); details: 10 µM unless noted
About 83,000 compounds went through this panel and 20% of them were active in at least one assay; those are over-represented in the sample as a whole.
// boundary case: growth equal to 80% maps to Not satisfied; strictly smaller maps to Satisfied

>>> class_name("Cc1[nH]nc2ccc3nc(-c4ccc5[nH]ncc5c4)c4c(c3c12)CCCC4")
"Satisfied"
>>> class_name("CC(=O)c1c(O)c(C)c(O)c2c1OC1=CC(=O)/C(=C(/C)N)C(=O)C12C (stereo unspecified)")
"Satisfied"
>>> class_name("CSCCC1NC(=O)C(C(C)=Nc2ccccc2)=C1O (stereo unspecified)")
"Not satisfied"
>>> class_name("N#Cc1ccc(NC(=O)Nc2nc3ccc(OC(F)(F)F)cc3s2)cc1")
"Satisfied"
>>> class_name("COc1ccc(C(=O)c2c(N)nc3n2CCCC3)cc1OC")
"Not satisfied"
>>> class_name("COc1ccc(-c2oc(=O)ccc2-c2cc(OC)c(OC)c(OC)c2)cc1F")
"Not satisfied"
>>> class_name("CC(C)N=C1CCCC1C(=S)SSC(=S)C1CCCC1=NC(C)C (stereo unspecified)")
"Not satisfied"
>>> class_name("O=C(NC1CC1)c1ccc(-c2nc3ccc4[nH]ncc4c3c3c2CCCC3)cc1")
"Satisfied"
>>> class_name("SCc1ccc(CS)cc1")
"Not satisfied"
>>> class_name("CCCCCCCCCCCCCCCCOc1ccc(S(=O)(=O)N(C)C)cc1[N+](=O)[O-]")
"Not satisfied"
>>> class_name("Nc1nc(N)c2cc(CNc3ccc(Cl)c(Cl)c3)ccc2n1")
"Satisfied"
>>> class_name("C/C(=C\\C(=N\\N=C(N)N)c1ccc(Cl)cc1)c1ccc(Cl)cc1")
"Satisfied"
>>> class_name("NC(=O)Nc1ccc2ncnc(Nc3cccc(O)c3)c2c1")
"Not satisfied"
>>> class_name("CSC1=NC(=Nc2c(C)cccc2C)C2(CCC(C(C)(C)C)CC2)N1c1ccc(Cl)cc1 (stereo unspecified)")
"Satisfied"
>>> class_name("COc1ccc(/C(=C\\c2cc(OC)c(OC)c(OC)c2)C(=O)Nc2nc3ccc(Cl)cc3s2)cc1")
"Not satisfied"
>>> class_name("O=C(Oc1c(Cl)c(Cl)c(Cl)c(Cl)c1Cl)C1CCCN1C(=O)OCc1ccccc1 (stereo unspecified)")
"Satisfied"
>>> class_name("CN1CCN(Cc2ccc(NC(=O)c3ccc(C#N)c(C#Cc4cnc(N)c5ncccc45)c3)cc2C(F)(F)F)CC1")
"Satisfied"
>>> class_name("O=C1OCC2=C1C(c1ccc(Cl)c(Cl)c1)c1cc3c(cc1N2CCO)CCC3 (stereo unspecified)")
"Satisfied"
>>> class_name("c1ccc2c(c1)cnc1ccccc12")
"Not satisfied"
>>> class_name("COc1cc2c(cc1OCCCOc1cc3c(cc1OC)C(=O)N1CCC[C@H]1C=N3)C=CC(C)(C)O2")
"Not satisfied"
>>> class_name("CCCCN(CCCC)CCCN=c1nc2c(c(N)n1-c1ccccc1)c(=S)n(-c1ccccc1)c(=S)n2-c1ccccc1")
"Satisfied"
